# study.target: Mitogen-activated protein kinase 9 (Homo sapiens, UniProt P45984)
# Sequence (P45984 whole entry): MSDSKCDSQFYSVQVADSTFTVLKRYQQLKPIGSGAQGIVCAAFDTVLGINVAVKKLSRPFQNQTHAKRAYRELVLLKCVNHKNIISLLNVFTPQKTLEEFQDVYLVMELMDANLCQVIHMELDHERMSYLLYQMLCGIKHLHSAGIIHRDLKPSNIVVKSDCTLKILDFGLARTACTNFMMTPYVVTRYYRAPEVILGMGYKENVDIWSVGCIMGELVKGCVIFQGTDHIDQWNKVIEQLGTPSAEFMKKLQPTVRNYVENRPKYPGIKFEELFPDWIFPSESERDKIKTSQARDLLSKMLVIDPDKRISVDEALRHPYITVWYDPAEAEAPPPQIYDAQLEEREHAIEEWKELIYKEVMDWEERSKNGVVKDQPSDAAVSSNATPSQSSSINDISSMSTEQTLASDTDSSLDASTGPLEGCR
# measurement.description: Inhibition of JNK2 (unknown origin) by kinase profiling assay
measured.endpoint: pIC50
Give bare numbers, as −log10 of the molar value.

Query: Hello, please tell me recorded pIC50 for this one: `O=C(c1cccc(CNc2n[nH]c3cccc(Cl)c23)c1)N1CCN(C(=O)c2ccc(Cl)cc2Cl)CC1`
Reply: 5.03

###

# study.target: Mitogen-activated protein kinase 10 (Homo sapiens)
# Sequence (P53779 whole entry): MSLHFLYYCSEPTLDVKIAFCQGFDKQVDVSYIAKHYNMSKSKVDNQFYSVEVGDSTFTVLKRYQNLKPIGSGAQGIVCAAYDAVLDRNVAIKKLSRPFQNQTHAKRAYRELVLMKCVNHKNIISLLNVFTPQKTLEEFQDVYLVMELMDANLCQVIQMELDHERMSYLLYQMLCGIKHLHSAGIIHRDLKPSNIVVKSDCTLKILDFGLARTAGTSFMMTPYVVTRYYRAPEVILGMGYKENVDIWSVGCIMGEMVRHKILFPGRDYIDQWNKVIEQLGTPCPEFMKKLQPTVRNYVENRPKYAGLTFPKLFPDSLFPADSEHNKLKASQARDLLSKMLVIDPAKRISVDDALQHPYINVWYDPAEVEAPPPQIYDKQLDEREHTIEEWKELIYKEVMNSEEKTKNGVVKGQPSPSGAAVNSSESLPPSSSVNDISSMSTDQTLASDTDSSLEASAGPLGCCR
measured.endpoint: pIC50
One number for each entry, as −log10 of the molar value.

Examples with answers:
[
  {
    "chemical.string": "O=C(c1ccc(CNc2n[nH]c3ccccc23)cc1)N1CCN(C(=O)c2cc(C(F)(F)F)ccc2Cl)CC1",
    "pIC50": 6.55
  },
  {
    "chemical.string": "O=C(c1ccc(CNc2n[nH]c3ccccc23)cc1)N1CCN(C(=O)c2ccc(Br)cc2Br)CC1",
    "pIC50": 6.61
  },
  {
    "chemical.string": "O=C(c1ccc(Cl)cc1)N1CCN(C(=O)c2ccc(CNc3n[nH]c4ccccc34)cc2)CC1",
    "pIC50": 6.52
  },
  {
    "chemical.string": "O=C(c1ccc(CNc2n[nH]c3ccccc23)cc1)N1CCN(C(=O)c2c(Cl)cccc2C(F)(F)F)CC1",
    "pIC50": 6.60
  }
]

Next:
Query: Answer with reported pIC50 of `O=C(c1cccc(CNc2n[nH]c3ccccc23)c1)N1CCN(C(=O)c2c(F)cccc2Cl)CC1`
Reply: 5.37
